src = patent US12404295B2

Target: human Gal-3 (hGal-3) (Homo sapiens (Human), UniProt P17931)
Sequence (P17931 whole entry): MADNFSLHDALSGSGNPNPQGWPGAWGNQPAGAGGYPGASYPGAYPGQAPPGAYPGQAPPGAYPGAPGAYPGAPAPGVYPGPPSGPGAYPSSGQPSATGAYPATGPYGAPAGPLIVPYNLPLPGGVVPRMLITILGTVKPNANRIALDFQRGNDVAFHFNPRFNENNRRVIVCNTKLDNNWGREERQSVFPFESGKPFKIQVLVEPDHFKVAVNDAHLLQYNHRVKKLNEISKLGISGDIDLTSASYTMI
Assay: competitive binding assay: biotinylated hGal-3 binding to microplate-adsorbed asialofetuin (ASF)
Settings: Gal-3 inhibition; binding of biotinylated hGal-3 to ASF; mean values; read-out: IC50
# pIC50 per entry
Please express pIC50 as -log10 of the molar concentration.

Please review the following examples before continuing.
COMPOUND	TEST VALUE
CC(C)(O)C(S[C@@H]1O[C@H](CO)[C@H](O)[C@H](n2cc(-c3ccc(C#N)c(F)c3)nn2)[C@H]1O)c1ccccc1C(F)(F)F (stereo partly drawn) [Example 5.31.112.]	5.82
OC[C@H]1O[C@@H](SC(c2ccccc2C(F)(F)F)C(O)c2ccccc2)[C@H](O)[C@@H](n2cc(-c3cc(F)c(F)c(F)c3)nn2)[C@H]1O (stereo partly drawn) [Example 2.61.112.]	5.96
OC[C@H]1O[C@@H](SC(c2ncccc2C(F)(F)F)C2(O)CCCC2)[C@H](O)[C@@H](n2cc(-c3cc(F)c(F)c(F)c3)nn2)[C@H]1O (stereo partly drawn) [Example 2.38.125.]	6.89

Prompt line: # query: pIC50 | item CO[C@@H]1[C@@H](n2cc(-c3cc(F)c(F)c(F)c3)nn2)[C@@H](O)[C@@H](CO)O[C@H]1SC(c1ccccc1C(F)(F)F)C1(O)CCN(S(=O)(=O)C2CC2)CC1 (stereo partly drawn) [Example 2.51.112.I.] | system: human Gal-3 (hGal-3) (Homo sapiens (Human), UniProt P17931)
Response line: 7.10

Prompt line: API: value(readout= pIC50, system= human Gal-3 (hGal-3) (Homo sapiens (Human), UniProt P17931), query= Cc1c(F)cccc1C(S[C@@H]1O[C@H](CO)[C@H](O)[C@H](n2cc(-c3cc(F)c(F)c(F)c3)nn2)[C@H]1O)C(C)(C)O (stereo partly drawn) [Example 2.31.114.] )
Response line: 6.89

Prompt line: Please provide the recorded pIC50 for COC(=O)N1CCC(O)([C@H](S[C@@H]2O[C@H](CO)[C@H](O)[C@H](n3cc(-c4cc(F)c(F)c(F)c4)nn3)[C@H]2O)c2ccccc2C(F)(F)F)CC1 [Example 2.50.112R.] , tested on human Gal-3 (hGal-3) (Homo sapiens (Human), UniProt P17931).
Response line: 7.10

====

Target: human Gal-3 (hGal-3) (Homo sapiens (Human))
Assay: competitive binding assay: biotinylated hGal-3 binding to microplate-adsorbed asialofetuin (ASF)
Conditions: Table 14; read-out: IC50 (Gal-3 inhibition)
The reader will find reported log10(IC50) values listed item by item below.
Friendly reminder: values = log10 of IC50, unit nM.

COMPOUND	log10(IC50)
CO[C@@H]1[C@@H](n2cc(-c3ccc(Br)c(F)c3)nn2)[C@@H](O)[C@@H](CO)O[C@H]1SC(c1ncccc1C)C1(O)CCC(F)(F)CC1 (stereo partly shown)	2.28
CO[C@@H]1[C@@H](n2cc(-c3cc(F)c(Br)c(F)c3)nn2)[C@@H](O)[C@@H](CO)O[C@H]1SC(c1ncccc1C)C1(O)CCC(F)(F)CC1 (stereo partly shown)	2.08
CO[C@@H]1[C@@H](n2cc(-c3cc(F)c(C)c(F)c3)nn2)[C@@H](O)[C@@H](CO)O[C@H]1S[C@H](c1ncccc1C)C1(O)CCC(F)(F)CC1 [Example 3.44.126R.I.]	1.60

Prompt line: Find the recorded log10(IC50) belonging to CO[C@@H]1[C@@H](n2cc(-c3ccc(C)c(F)c3F)nn2)[C@@H](O)[C@@H](CO)O[C@H]1SC(c1ncccc1C)C1(O)CCC(F)(F)CC1 (stereo partly shown) and report it.
Response line: 1.70

Prompt line: Suppose we examine the compound CO[C@@H]1[C@@H](n2cc(-c3cnc(F)c(C)c3)nn2)[C@@H](O)[C@@H](CO)O[C@H]1SC(c1ncccc1C)C1(O)CCC(F)(F)CC1 (stereo partly shown) ; what log10(IC50) value has been reported?
Response line: 2.52

Prompt line: State the recorded log10(IC50) for this entry: CO[C@@H]1[C@@H](n2cc(-c3ccc(F)c(F)c3)nn2)[C@@H](O)[C@@H](CO)O[C@H]1S[C@H](c1ncccc1C)C1(O)CCC(F)(F)CC1 [Example 16.44.126R.I.]
Response line: 1.90

Prompt line: Form field: reported log10(IC50) of CO[C@@H]1[C@@H](n2cc(-c3cc(F)c(C)c(F)c3)nn2)[C@@H](O)[C@@H](CO)O[C@H]1S[C@@H](c1ncccc1C)C1(O)CCC(F)(F)CC1 [Example 3.44.126S.I.]
Response line: 3.06

====

A set of compounds tested on human Gal-1 (hGal-1) (Homo sapiens (Human)), with measured IC50:

COMPOUND	IC50
O=C(NC1CC1)N1CCC(O)([C@@H](S[C@@H]2O[C@H](CO)[C@H](O)[C@H](n3cc(-c4cc(F)c(F)c(F)c4)nn3)[C@H]2O)c2ccccc2C(F)(F)F)CC1 [Example 2.49.112S.]	12100 nM

Consider now this further compound.
Prompt line: Can you look up the measured IC50 of Cc1ccnnc1C(S[C@@H]1O[C@H](CO)[C@H](O)[C@H](n2cc(-c3cc(F)c(F)c(F)c3)nn2)[C@H]1O)C1(O)CCC(F)(F)CC1 (stereo partly drawn) [Example 2.44.135.] for me?
Response line: 450 nM

====

Assay system human Gal-1 (hGal-1) (Homo sapiens (Human)); read-out recorded as IC50.

# count of solved cases: 3
MOLECULE	TARGET OR TEST SYSTEM	IC50
OC[C@H]1O[C@@H](S[C@@H](c2ncccc2C(F)(F)F)C2(O)CCOCC2)[C@H](O)[C@@H](n2cc(-c3cc(F)c(F)c(F)c3)nn2)[C@H]1O [Example 2.41.125S.]	human Gal-1 (hGal-1) (Homo sapiens (Human))	7.47 µM
CCc1ccccc1C(S[C@@H]1O[C@H](CO)[C@H](O)[C@H](n2cc(-c3cc(F)c(F)c(F)c3)nn2)[C@H]1O)C(C)(C)O (some centres unmarked)	human Gal-1 (hGal-1) (Homo sapiens (Human))	1.23 µM
CO[C@@H]1[C@@H](n2cc(-c3cc(F)c(F)c(F)c3)nn2)[C@@H](O)[C@@H](CO)O[C@H]1S[C@H](c1ccccc1C(C)C)C1(O)CCC(F)(F)CC1 [Example 2.44.105R.I.]	human Gal-1 (hGal-1) (Homo sapiens (Human))	0.15 µM

Prompt line: Under human Gal-1 (hGal-1) (Homo sapiens (Human)): IC50 value of Cc1nc(C)c([C@H](S[C@@H]2O[C@H](CO)[C@H](O)[C@H](n3cc(-c4cc(F)c(F)c(F)c4)nn3)[C@H]2O)C2(O)CCC(F)(F)CC2)nc1C [Example 2.44.119S.] ?
Response line: 7.21 µM

====

Target: human Gal-3 (hGal-3) (Homo sapiens (Human))
Assay: competitive binding assay: biotinylated hGal-3 binding to microplate-adsorbed asialofetuin (ASF)
Conditions: Table 10; 2-OMe-Gal inhibitors; read-out: IC50 (Gal-3 inhibition)
MEASURE NAME: pIC50
Conceptually, pIC50 converts a concentration in mol/L into minus its log10.

COMPOUND	pIC50
CO[C@@H]1[C@@H](n2cc(-c3cc(F)c(F)c(F)c3)nn2)[C@@H](O)[C@@H](CO)O[C@H]1SC(c1nccnc1Cl)C1(O)CCC(F)(F)CC1 (stereo partly shown) [Example 2.44.133.I.]	6.77

Prompt line: Would you mind telling me what pIC50 value was observed for CCn1ncc(Cl)c1[C@@H](S[C@@H]1O[C@H](CO)[C@H](O)[C@H](n2cc(-c3cc(F)c(F)c(F)c3)nn2)[C@H]1OC)C1(O)CCC(F)(F)CC1 [Example 2.44.139R.I.] ?
Response line: 6.49

Prompt line: Need pIC50 of CCn1nnc(C)c1[C@@H](S[C@@H]1O[C@H](CO)[C@H](O)[C@H](n2cc(-c3cc(F)c(F)c(F)c3)nn2)[C@H]1OC)C1(O)CCC(F)(F)CC1 [Example 2.44.138R.I.] , thanks.
Response line: 6.82

Prompt line: If you can, please state the reported pIC50 value of CO[C@@H]1[C@@H](n2cc(-c3cc(F)c(F)c(F)c3)nn2)[C@@H](O)[C@@H](CO)O[C@H]1S[C@@H](c1nocc1C)C1(O)CCCCC1 [Example 2.39.120S.I.] .
Response line: 4.90

====

Here, each record is paired with measured IC50 data.
Target: UniProt:P09382
Reply with just the number (in µM).

COMPOUND	SCALE UNIT	IC50
Cc1ncccc1C(S[C@@H]1O[C@H](CO)[C@H](O)[C@H](n2cc(-c3cc(F)c(F)c(F)c3)nn2)[C@H]1O)C(C)(C)O (some centres unmarked)	µM	3.78
CN1CCC(O)(C(S[C@@H]2O[C@H](CO)[C@H](O)[C@H](n3cc(-c4cc(F)c(F)c(F)c4)nn3)[C@H]2O)c2ncccc2C(F)(F)F)CC1 (some centres unmarked)	µM	0.53
CO[C@@H]1[C@@H](n2cc(-c3cc(F)c(F)c(F)c3)nn2)[C@@H](O)[C@@H](CO)O[C@H]1S[C@H](c1ncccc1C1CC1)C1(O)CCC(F)(F)CC1 [Example 2.44.134R.I.]	µM	0.11
Cc1nc(C)c([C@H](S[C@@H]2O[C@H](CO)[C@H](O)[C@H](n3cc(-c4cc(F)c(F)c(F)c4)nn3)[C@H]2O)C2(O)CCOCC2)nc1C [Example 2.41.119S.]	µM	19.9
Cc1noc(C2CC2)c1[C@@H](S[C@@H]1O[C@H](CO)[C@H](O)[C@H](n2cc(-c3cc(F)c(F)c(F)c3)nn2)[C@H]1O)C1(O)CCCCC1 [Example 2.39.128R.]	µM	1.03

Prompt line: Record COC(=O)N1CCC(O)([C@@H](S[C@@H]2O[C@H](CO)[C@H](O)[C@H](n3cc(-c4cc(F)c(F)c(F)c4)nn3)[C@H]2O)c2ccccc2C(F)(F)F)CC1 [Example 2.50.112S.] : what is its IC50 with UniProt:P09382?
Response line: 15.8

Prompt line: What IC50 appears in the records for this compound with UniProt:P09382? CC(C)(O)[C@@H](S[C@@H]1O[C@H](CO)[C@H](O)[C@H](n2cc(-c3cc(F)c(F)c(F)c3)nn2)[C@H]1O)c1ccccc1Cl [Example 2.31.111S.]
Response line: 30.9

Prompt line: Checklist item: IC50 tested on UniProt:P09382, entry Cc1nccnc1[C@H](S[C@@H]1O[C@H](CO)[C@H](O)[C@H](n2cc(-c3cc(F)c(F)c(F)c3)nn2)[C@H]1O)C1(O)CCC(F)(F)CC1 [Example 2.44.129S.] , value?
Response line: 6.3

Prompt line: Quick check: IC50 on UniProt:P09382, item Cc1ccccc1[C@@H](S[C@@H]1O[C@H](CO)[C@H](O)[C@H](n2cc(-c3cc(F)c(F)c(F)c3)nn2)[C@H]1O)C1(O)CCOCC1 [Example 2.41.102R.] ?
Response line: 0.21

Prompt line: API: value(readout= IC50, system= UniProt:P09382, query= CO[C@@H]1[C@@H](n2cc(-c3ccc(C)c(F)c3F)nn2)[C@@H](O)[C@@H](CO)O[C@H]1SC(c1ncccc1C)C1(O)CCC(F)(F)CC1 (some centres unmarked) )
Response line: 0.55

Prompt line: Could you share what IC50 was measured for Cc1cccnc1[C@H](S[C@@H]1O[C@H](CO)[C@H](O)[C@H](n2cc(-c3cc(F)c(F)c(F)c3)nn2)[C@H]1O)C1(O)CCS(=O)(=O)CC1 [Example 2.66.126S.] , tested on UniProt:P09382?
Response line: 16.5
